molecular target: Epidermal growth factor receptor (Homo sapiens); assay: Inhibition of recombinant human GST-tagged EGFR cytoplasmic domain (668 to 1210 residues) expressed in baculovirus by Z'-LYTE assay
Sequence (P00533 whole entry, the tested form may be a part): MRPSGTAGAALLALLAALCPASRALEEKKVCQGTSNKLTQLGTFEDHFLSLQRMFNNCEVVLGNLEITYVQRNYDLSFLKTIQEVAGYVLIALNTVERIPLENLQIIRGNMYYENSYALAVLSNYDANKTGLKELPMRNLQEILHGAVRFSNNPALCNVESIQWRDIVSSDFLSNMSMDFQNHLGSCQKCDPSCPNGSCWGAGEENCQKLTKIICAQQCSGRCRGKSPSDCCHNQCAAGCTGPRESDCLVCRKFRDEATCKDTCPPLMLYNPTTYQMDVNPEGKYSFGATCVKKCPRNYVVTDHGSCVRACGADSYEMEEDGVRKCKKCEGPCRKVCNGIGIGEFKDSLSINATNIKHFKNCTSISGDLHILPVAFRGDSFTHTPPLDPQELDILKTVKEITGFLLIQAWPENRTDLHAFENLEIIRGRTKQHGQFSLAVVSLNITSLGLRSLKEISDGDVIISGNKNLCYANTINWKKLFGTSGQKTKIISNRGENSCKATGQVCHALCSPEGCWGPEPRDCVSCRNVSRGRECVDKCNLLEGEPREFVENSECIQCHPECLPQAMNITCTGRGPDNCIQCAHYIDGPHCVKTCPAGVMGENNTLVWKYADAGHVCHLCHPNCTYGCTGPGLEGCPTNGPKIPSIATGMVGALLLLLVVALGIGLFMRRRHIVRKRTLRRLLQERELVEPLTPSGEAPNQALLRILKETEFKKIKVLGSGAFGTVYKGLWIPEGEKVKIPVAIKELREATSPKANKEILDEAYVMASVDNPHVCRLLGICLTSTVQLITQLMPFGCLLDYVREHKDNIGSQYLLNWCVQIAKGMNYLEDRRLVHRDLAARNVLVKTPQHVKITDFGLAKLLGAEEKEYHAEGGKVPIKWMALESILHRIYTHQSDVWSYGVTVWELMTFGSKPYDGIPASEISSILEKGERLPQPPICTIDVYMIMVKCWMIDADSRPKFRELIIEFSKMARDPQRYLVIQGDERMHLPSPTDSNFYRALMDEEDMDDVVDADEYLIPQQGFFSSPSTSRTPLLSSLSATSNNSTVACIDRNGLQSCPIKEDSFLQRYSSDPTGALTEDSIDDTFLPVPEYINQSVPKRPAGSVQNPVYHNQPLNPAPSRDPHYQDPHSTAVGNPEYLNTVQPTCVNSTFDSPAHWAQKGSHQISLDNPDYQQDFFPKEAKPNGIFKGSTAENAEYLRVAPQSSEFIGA
Rule for this label: true (1) means IC50 is less than 20 nM; false (0) means IC50 is at least 20 nM.

Solved cases (4 shown):
{"chemSmiles": "CC[C@@H](Nc1ncnc2oc(-c3ccc(OC)cc3)cc12)c1ccccc1", "systemUnderTest": "Epidermal growth factor receptor (Homo sapiens)", "categoryLabel": "false (0)"}
{"chemSmiles": "COc1ccc(-c2cc3c(N[C@H](C)c4ccccc4)ncnc3o2)cc1", "systemUnderTest": "Epidermal growth factor receptor (Homo sapiens)", "categoryLabel": "true (1)"}
{"chemSmiles": "COc1ccc(-c2cc3c(N[C@H](C)c4ccc(F)cc4)ncnc3o2)cc1", "systemUnderTest": "Epidermal growth factor receptor (Homo sapiens)", "categoryLabel": "false (0)"}
{"chemSmiles": "COc1cccc(-c2cc3c(N[C@H](C)c4ccccc4)ncnc3o2)c1", "systemUnderTest": "Epidermal growth factor receptor (Homo sapiens)", "categoryLabel": "true (1)"}

Lab note: confirm whether the reported IC50 for this compound is below 20 nM, equality not counting. compound: C[C@@H](Nc1ncnc2oc(-c3ccccc3)cc12)c1ccccc1
true (1)

Lab note: confirm whether the reported IC50 for this compound is below 20 nM, equality not counting. compound: COc1ccc(-c2cc3c(N[C@H](C)c4cccc(F)c4)ncnc3o2)cc1
false (0)

Lab note: confirm whether the reported IC50 for this compound is below 20 nM, equality not counting. compound: C[C@@H](Nc1ncnc2oc(-c3ccc(C#N)cc3)cc12)c1ccccc1
false (0)

Lab note: confirm whether the reported IC50 for this compound is below 20 nM, equality not counting. compound: C[C@@H](Nc1ncnc2oc(-c3ccc(NCCN(C)C)cc3)cc12)c1ccccc1
true (1)

Lab note: confirm whether the reported IC50 for this compound is below 20 nM, equality not counting. compound: C[C@@H](Nc1ncnc2oc(-c3ccc(NCCN4CCOCC4)cc3)cc12)c1ccccc1
true (1)

Lab note: confirm whether the reported IC50 for this compound is below 20 nM, equality not counting. compound: COC[C@@H](Nc1ncnc2oc(-c3ccccc3)cc12)c1ccccc1
false (0)
